meta.source: ChEMBL document CHEMBL6083248

Test system: MCF7
assay_comment: Antiproliferative activity against human MCF7 cells assessed as inhibition of cell growth incubated for 48 hrs by MTT assay
Assay type: functional, cell-based
condition_parameters: MCF7, 48 h
pIC50: −log10 of the molar value.
experimental_readout: pIC50

Solved entries:
smiles | pIC50
FC(F)(F)c1cccc(-n2cc3cc4c5ccccc5n(Cc5cccc(Cl)c5)c4c[n+]3c2)c1 | 5.85
Cn1c2ccccc2c2cc3cn(-c4ccccc4)c[n+]3cc21 | 4.70
c1ccc(Cn2cc3cc4c5ccccc5n(Cc5ccccc5)c4c[n+]3c2)cc1 | 5.60
CN(C)c1ccc(-n2cc3cc4c5ccccc5n(Cc5ccccc5)c4c[n+]3c2)cc1 | 4.85
Cn1c2ccccc2c2cc3cn(-c4cccc(C(F)(F)F)c4)c[n+]3cc21 | 4.70

I. COc1ccc(Cn2c3ccccc3c3cc4cn(-c5ccc(C(F)(F)F)cc5)c[n+]4cc32)cc1
II. c1ccc(Cn2c3ccccc3c3cc4cn(-c5ccccc5)c[n+]4cc32)cc1
III. FC(F)(F)c1ccc(-n2cc3cc4c5ccccc5n(Cc5ccccc5)c4c[n+]3c2)cc1
IV. CN(C)CCn1cc2cc3c4ccccc4n(CCCc4ccccc4)c3c[n+]2c1
Give the ascending ranking of the items by reported pIC50. Show the ranking through the labels, in the order asked for.
I, III, II, IV
(I: 4.80, III: 5.04, II: 5.26, IV: 5.82)

I. Fc1ccc(Cn2c3ccccc3c3cc4cn(-c5ccccc5)c[n+]4cc32)cc1
II. CN(C)c1ccc(-n2cc3cc4c5ccccc5n(C)c4c[n+]3c2)cc1
Quick check, higher pIC50 between I and II ? // respond with label for picked entry
II
(II: 5.42, I: 4.90)
